B1: library; a variant is named by its letters at N, in order (parent)
chain: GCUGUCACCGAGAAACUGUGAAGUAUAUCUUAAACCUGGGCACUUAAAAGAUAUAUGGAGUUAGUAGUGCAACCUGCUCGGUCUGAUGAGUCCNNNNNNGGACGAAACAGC

# Variants of: B1
# procedure-text: normalized RNA/DNA level with ligand (relative to sTRSVctl = 100) (log10 (% of sTRSVctl)); HEK293T; ligand: cyclic di-GMP (c-di-GMP-II aptamer); ligand concentration (+) RNA-Seq: 1 mM; higher = less ribozyme self-cleavage, higher mRNA level
# condition-context: reporter: mCherry (pCS4076), ligand present: yes
# Lookup of reported normalized RNA/DNA level with ligand (log10) keyed by entry
I only need the number, thanks.

Illustrative cases are given below, each with its answer.
{"mutant-label": "CAGUGC", "result-value": 1.81}
{"mutant-label": "UCACCG", "result-value": 1.89}
{"mutant-label": "CCUGUG", "result-value": 1.76}
{"mutant-label": "UAUUAU", "result-value": 1.82}
{"mutant-label": "GUCCUC", "result-value": 1.9}

Lookup: Look up and state reported normalized RNA/DNA level with ligand (log10) for CUUCGG
Found: 1.89

Lookup: Look up and state reported normalized RNA/DNA level with ligand (log10) for UCAUUU
Found: 1.78

Lookup: Look up and state reported normalized RNA/DNA level with ligand (log10) for GACAUC
Found: 1.84

Lookup: Look up and state reported normalized RNA/DNA level with ligand (log10) for AAGCAA
Found: 1.72

Lookup: Look up and state reported normalized RNA/DNA level with ligand (log10) for CUGGCU
Found: 1.87
